- Protocol: yeast display, Sf9 membrane polyspecificity reagent, FACS + sequencing; frameworks hold sequencing errors

# Item sequence, polyreactivity (PSR sort gate)
data = [
    ("QVQLVESGGGLVQAGGSLRLSCAASGRTFYRNTMGWYRQAPGKERELVAGISYSGGSTYYADSVKGRFTISRDNAKNTVYLQMNSLKPEDTAVYYCATVRRYGYGYDYWGQGTQVTVSS", "high polyreactivity"),
    ("QVQLVESGGGLVQARGSLRLSCAASGRTFKRYAMGWYRQAPGKERELVAAIAWSGTSTYYADSVKGRLTISRDNAKNTVYLQMNSLIPEDTAVYYCNTPHRSSSVRSYGYWGQGTQVSVSS", "high polyreactivity"),
]
